Where these numbers come from: paper PMC3596305

- Substrate: [O]=[Cr](=[O])([OH])[OH]
- protocol-text: purified protein
- condition-context: 1 mM NADH, 50 mM Tris-Cl pH 7.0, 22°C
Km values, listed per item
measured-quantity: Km (µM)

- NfsB_Kp (Klebsiella pneumoniae subsp. pneumoniae MGH 78578) (protein) MDIVSVALKRYSTKAFDATKKLTAGEAEQLKTLLQYSPSSTNSQPWHFIVASTDEGKARVAKAASGTYVFNERKILDASHVVVFCAKTAMDDAWLQRVVDQEEADGRFATPDAKAANHKGRTFFADMHRKELKDDDQWMAKQVYLNVGNFLLGVAAMGLDAVPIEGVDFAILDEEFDLKAQGYTSLVVVPVGHHSAEDFNATLPKSRLPQSTTITEI: 47
- YdgI_Bs (Bacillus subtilis subsp. subtilis str. 168) (protein) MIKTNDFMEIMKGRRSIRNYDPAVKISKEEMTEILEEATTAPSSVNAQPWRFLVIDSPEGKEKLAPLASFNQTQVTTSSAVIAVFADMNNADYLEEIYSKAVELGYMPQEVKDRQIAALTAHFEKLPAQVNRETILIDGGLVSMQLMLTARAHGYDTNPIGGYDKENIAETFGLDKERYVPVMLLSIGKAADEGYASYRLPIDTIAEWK: 63
- Frp_Vh1 (Vibrio harveyi) (protein) MNNTIETILAHRSIRKFTAVPITDEQRQTIIQAGLAASSSSMLQVVSIVRVTDSEKRNELAQFAGNQAYVESAAEFLVFCIDYQRHATINPDVQADFTELTLIGAVDSGIMAQNCLLAAESMGLGGVYIGGLRNSAAQVDELLGLPENSAVLFGMCLGHPDQNPEVKPRLPAHVVVHENQYQELNLDDIQSYDQTMQAYYASRTSNQKLSTWSQEVTGKLAGESRPHILPYLNSKGLAKR: 3.8
- NfsA_Kp (Klebsiella pneumoniae) (protein) MTPTIELLRSHRSIRHFTDAPVSDEQRAEIIASAQAASTSSFLQCTSIIRITDPALRERLVPLTGGQQHVAQAAEFWVFCADFNRHLQICPQAQLGLAEQLLIGVVDTALLAQNALTAAESLGLGGVYIGGLRNSIEAVTELLELPQHVLPLFGLCLGWPADNPDIKPRMPAAMLVHENRYQPLDNALLAEYDEQLAHYYLSRGSNARRDTWSDHIRRTIVKESRPFILDYLHKQGWATR: 1.7
- YcnD_Bs (Bacillus subtilis subsp. subtilis str. 168) (protein) MNEVIKSLTDHRSIRSYTDEPVAQEQLDQIIEAVQSAPSSINGQQVTVITVQDKERKKKISELAGGQPWIDQAPVFLLFCADFNRAKIALEDLHDFKMEITNGLESVLVGAVDAGIALGTATAAAESLGLGTVPIGAVRGNPQELIELLELPKYVFPLSGLVIGHPADRSAKKPRLPQEAVNHQETYLNQDELTSHIQAYDEQMSEYMNKRTNGKETRNWSQSIASYYERLYYPHIREMLEKQGFKVEK: 73
- NfsB_Vv (Vibrio vulnificus YJ016) (protein) MTIVQAAQSRYSTKAFDASRKLPEEKVAAVKELIRMSASSVNSQPWHFIVASSEEGKARIAKATQGGFAFNERKILDASHVVVFCAKTAIDEAYLLDLLESEDKDGRFADVEAKNGMHAGRSFFVNMHRFDLKDAHHWMEKQVYLNVGTLLLGASAMEIDAVPIEGFDAKVLDEEFGLREKGFTSVVIVPLGYHSEDDFNAKLPKSRWSAETVFTEI: 2200
- MdaB_Ec (Escherichia coli K-12) (protein) SNILIINGAKKFAHSNGQLNDTLTEVADGTLRDLGHDVRIVRADSDYDVKAEVQNFLWADVVIWQMPGWWMGAPWTVKKYIDDVFTEGHGTLYASDGRTRKDPSKKYGSGGLVQGKKYMLSLTWNAPMEAFTEKDQFFHGVGVDGVYLPFHKANQFLGMEPLPTFIANDVIKMPDVPRYTEEYRKHLVEIFG: 170
- ChrR_Pa (Pseudomonas aeruginosa PAO1) (protein) MSDDIKVLGISGSLRSGSYNSAALQEAIGLVPPGMSIELADISGIPLYNEDVYALGFPPAVERFREQIRAADALLFATPEYNYSMAGVLKNAIDWASRPPEQPFSGKPAAILGASAGRFGTARAQYHLRQTLVFLDVHPLNKPEVMISSAQNAFDAQGRLLDDKARELIQQQLQALQLWVRRLRG: 1300
